Values were extracted from patent US20250186452A1.

Biological target: TEL-CSF1R-BaF3 (Homo sapiens)
Construct: expressed in transfected cells; host or cells: mouse BaF3 cells (ATCC), retroviral transduction with MSCV-Puro vector, IL-3 withdrawn; the other entry of the earlier key: ETV6 (P41212, Transcription factor ETV6)
Sequence (P07333 582-910 limits assumed): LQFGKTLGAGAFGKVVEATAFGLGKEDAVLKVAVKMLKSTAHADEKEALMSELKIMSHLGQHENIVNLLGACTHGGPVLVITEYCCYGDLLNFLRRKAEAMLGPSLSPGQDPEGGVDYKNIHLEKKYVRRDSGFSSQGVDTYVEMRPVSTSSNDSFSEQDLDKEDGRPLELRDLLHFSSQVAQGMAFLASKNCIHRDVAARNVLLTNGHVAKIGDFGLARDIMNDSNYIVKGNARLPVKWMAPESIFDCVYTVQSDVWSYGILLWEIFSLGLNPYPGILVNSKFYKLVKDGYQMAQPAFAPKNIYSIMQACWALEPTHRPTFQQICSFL
Assay: Proliferation of TEL-CSF1R-BaF3 cells (CCK-8, 72 hours)
Assay type: cell-based
Conditions: 72 hours incubation, CCK-8
Experimental: The incubated cells were detected by CCK-8 (purchased from MedChem Express, China) cell viability detection kit (CCK-8 can be reduced by dehydrogenases in living cells to a highly water-soluble yellow formazan product, and the amount of the generated formazan product is proportional to the number of living cells). The number of living cells was quantified by a microplate reader, and the GI50 for each compound was calculated (the results are shown in Table 2). […]
GI50 under 0.006 µM gets Condition met, anything at or over 0.006 µM gets Condition not met.

Enquiry: Is 0.006 µM strictly greater than the compound's reported GI50? compound: COc1cc2nccc(Oc3ccc(NC(=O)Cc4ccc(F)c(F)c4)cc3)c2cc1OC [Example 12]
Return: Condition met

Enquiry: Is it true that GI50 reported for COc1cc2nccc(Oc3ccc(NC(=O)Cc4ccc(Cl)c(C(F)(F)F)c4)cc3OC)c2cc1OC [Example 37] is less than 0.006 µM?
Return: Condition met

Enquiry: Check if GI50 falls below 0.006 µM for COc1cc2nccc(Oc3ccc(C(=O)NCc4cccc(C(F)(F)F)c4)cc3)c2cc1OC [Comparative Example 3, reference compound] .
Return: Condition not met

Enquiry: Strictly below 0.006 µM: is that where GI50 of COc1cc2nccc(Oc3ccc(NC(=O)NCCCN4CCN(C)CC4)cc3)c2cc1OC [Example 29] sits?
Return: Condition not met

Enquiry: hey, is GI50 for COc1cc2nccc(Oc3ccc(NC(=O)Cc4ccc(C)c(F)c4)cc3)c2cc1OC [Example 16] lower than 0.006 µM or not?
Return: Condition met

Enquiry: Problem: For the compound COc1cc2nccc(Oc3ccc(NC(=O)Cc4ccc(Cl)c(C(F)(F)F)c4)cc3F)c2cc1OC [Example 25] , is GI50 under 0.006 µM?
Return: Condition met

Enquiry: GI50 under 0.006 µM? Item: COc1cc2nccc(Oc3ccc(NC(=O)Cc4ccc(C(F)(F)F)cc4)c(Cl)c3)c2cc1OC [Example 7]
Return: Condition not met
